meta.source: the supplement of paper PMC10567573

B1: KCNA1 (parent)
chain: LKASMRELGLLIFFLFIGVILFSS

# Variants of: B1
# ASSAY_NAME: protein stability index of a GFP-peptide fusion (GPS, HEK-293T) (PSI 1-6); higher = more stable;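 note: lentivirally expressed fusions sorted by FACS into six bins by GFP to DsRed ratio, PSI derived from sequencing read proportions per bin multiplied by bin number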
# CONDITION_CONTEXT: c terminus: a fixed tail appended
MEASUREMENT_LABEL: protein stability index
API note: the answer field is a bare number with no unit suffix.

| RESIDUE_CODES | MEASUREMENT_LABEL | TEST_VALUE |
| --- | --- | --- |
| LKASMRELGLLIFFLLIGVILFSS [F16L] | protein stability index | 2.91 |
| LKASCRELGLLIFFLFIGVILFSS [M5C] | protein stability index | 2.92 |
| LKASMRELGLLIFFLFIGVILFSF [S24F] | protein stability index | 2.02 |

Then there is this variant:
Determine from records and report protein stability index for LKASMRELGLLIFFLFIGVILFVS [S23V]
2
